In this section we review reported CC50 at 48 h values for a set of compounds.
protocol description: Cytotoxicity against mouse RAW264.7 cells after 48 hrs by MTT assay
Assay type: cell-based
quantity name: CC50 at 48 h

                                        smi  quantity_name  recorded_result
0        O=c1c(O)c(/C=C/c2ccccc2)oc2ccccc12   CC50 at 48 h          52.1 µM
1                          O=c1ccoc2ccccc12   CC50 at 48 h         > 150 µM
2        O=c1cc(/C=C/c2ccc(O)cc2)oc2ccccc12   CC50 at 48 h         > 150 µM
3       C/C(=C\c1ccccc1)c1oc2ccccc2c(=O)c1O   CC50 at 48 h          46.7 µM
4         COc1c(/C=C/c2ccccc2)oc2ccccc2c1=O   CC50 at 48 h         > 150 µM
5           O=c1cc(/C=C/c2ccccc2)oc2ccccc12   CC50 at 48 h         > 150 µM
6        C/C(=C\c1ccccc1)c1cc(=O)c2ccccc2o1   CC50 at 48 h         > 150 µM
7  O=c1cc(/C=C/c2ccccc2)oc2cccc(OCc3ccccc3)c12   CC50 at 48 h         > 150 µM
8        Cc1ccc(/C=C/c2cc(=O)c3ccccc3o2)cc1   CC50 at 48 h         > 150 µM
9        O=c1cc(/C=C/c2ccccc2)oc2cccc(O)c12   CC50 at 48 h         > 150 µM
